- Test system: 233499-124-R-J3-PDC complex spheroid viability, % test/control
- procedure_details: Anticancer human tumor 233499-124-R-J3-PDC patient-derived colon adenocarcinoma cell line growth inhibition
- particulars: second compound 10 µM; first compound 0.0316 µM; stronger effect = lower value
Listing: viability, T/C of selected compounds
attribute_measured: viability, T/C (%)

compound="O=C(c1cc(Cc2n[nH]c(=O)c3ccccc23)ccc1F)N1CCN(C(=O)C2CC2)CC1 + NC1CCC(NC2CC2c2ccccc2)CC1" reading=79.4
compound="Cn1ncnc1C1c2n[nH]c(=O)c3cc(F)cc(c23)NC1c1ccc(F)cc1 (configuration not stated) + NC1CC1c1ccc(-c2cccc(O)c2)cc1" reading=58.7
compound="CC(C)c1c(-c2ccccc2)nc2c(C#N)c[nH]n2c1=O + NC1CC1c1ccc(-c2cccc(O)c2)cc1" reading=76.1
compound="CC(C)CC(NC(=O)C(Cc1ccccc1)NC(=O)c1cnccn1)B(O)O (configuration not stated) + NC1CCC(NC2CC2c2ccccc2)CC1" reading=0.6
compound="CC(C)CC(NC(=O)CNC(=O)c1cc(Cl)ccc1Cl)B1OC(=O)CC(CC(=O)O)(C(=O)O)O1 (configuration not stated) + NC1CCC(NC2CC2c2ccccc2)CC1" reading=0.14
compound="CC(C)c1c(-c2ccccc2)nc2c(C#N)c[nH]n2c1=O + NC1CCC(NC2CC2c2ccccc2)CC1" reading=83.7
compound="COc1ccc([C@@H](O)c2cc(-c3ncnc4cc(N5CCOCC5)ccc34)c(F)cc2Cl)nn1 + NC1CC1c1ccc(-c2cccc(O)c2)cc1" reading=69.5
compound="Nc1ncn(C2CC(O)C(CO)O2)c(=O)n1 (configuration not stated) + NC1CCC(NC2CC2c2ccccc2)CC1" reading=68.7
compound="CC1COCCN1c1cc(C2(S(C)(=N)=O)CC2)nc(-c2ccnc3[nH]ccc23)n1 (configuration not stated) + NC1CC1c1ccc(-c2cccc(O)c2)cc1" reading=92.2
compound="COc1ccc([C@@H](O)c2cc(-c3ncnc4cc(N5CCOCC5)ccc34)c(F)cc2Cl)nn1 + NC1CCC(NC2CC2c2ccccc2)CC1" reading=92.6
compound="CC(C)CC(NC(=O)CNC(=O)c1cc(Cl)ccc1Cl)B1OC(=O)CC(CC(=O)O)(C(=O)O)O1 (configuration not stated) + NC1CC1c1ccc(-c2cccc(O)c2)cc1" reading=0.15
compound="CC1COCCN1c1cc(-c2ccnn2C)c2ccnc(-c3ccn[nH]3)c2n1 (configuration not stated) + NC1CC1c1ccc(-c2cccc(O)c2)cc1" reading=32.7

====

- Tested on: 233499-124-R-J3-PDC complex spheroid viability, % test/control
- procedure_details: Anticancer human tumor 233499-124-R-J3-PDC cell line growth inhibition;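 note: spheroids exposed to agents for one week before readout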
- particulars: second compound 10 µM; first compound 0.0949 µM; stronger effect = lower value
Catalogue of compounds with associated viability, T/C
attribute_measured: viability, T/C (%)

compound="O=C(C=Cc1cccc(S(=O)(=O)Nc2ccccc2)c1)NO + NC1CCC(NC2CC2c2ccccc2)CC1" unit_label=% reading=78.8
compound="CCc1c2c(nc3ccc(O)cc13)-c1cc3c(c(=O)n1C2)COC(=O)[C@]3(O)CC + NC1CC1c1ccc(-c2cccc(O)c2)cc1" unit_label=% reading=43.8
compound="Nc1ccccc1NC(=O)c1ccc(CNC(=O)OCc2cccnc2)cc1 + NC1CCC(NC2CC2c2ccccc2)CC1" unit_label=% reading=75.2
compound="Nc1ccn(C2OC(CO)C(O)C2(F)F)c(=O)n1 (centres undefined) + NC1CC1c1ccc(-c2cccc(O)c2)cc1" unit_label=% reading=32.8
